Target: ScBem1-D1
Assay: SPOT peptide array binding signal intensity (averaged, normalized) (arbitrary units (background-subtracted, floor 0; scale differs between SH3 domains)); higher = stronger binding of the SH3 domain to the peptide
quantity: SPOT peptide array binding signal intensity

{"columns": ["binder", "observed-value"],
 "data": [
  ["FPGKKSPRLPHRNKK", 7],
  ["LYKRKPILLPDPKPL", 3],
  ["STKKPRPPVKSKPKH", 14],
  ["TKPTPPPKPSHLKPK", 1.5],
  ["NPLPKEPRLPKRKVA", 12.5],
  ["QPWTDQFEKLEKEVS", "≤ 0"],
  ["IKTRSVPKIPSIESV", 38.5],
  ["AGKRRLPLVRFKASD", 68.5],
  ["LPPPPPPPPPPPLPQ", "≤ 0"],
  ["LASNSPPVYPKRIRH", "≤ 0"],
  ["RPPRPPPKPLHLRTE", 4],
  ["RLSRLLLSLPPESFT", 102],
  ["ATKSASPTLPTRRSR", 30],
  ["FFRRSELYLPNSSKA", 18],
  ["KWVRRPKLMTPLTFS", 91.5]
]}
